Source of measurements: patent US20090299035A1

- STUDY SYSTEM: Human IgG (Sigma-Aldrich Corporation) (human)
- ASSAY COMMENT: Biacore SPR; protein on NTA chip, human IgG injected; reference repeated from Table 3
EXPERIMENTAL READOUT: Kd (nM)

BINDER	RECORDED VALUE
pPL (SEQ ID NO: 3) (designed binder) ATIRANLIYADGRTQTAEFRGTFEEATAEAYRYADLLARENGRYTVDVADRGYTLNIRFAGGGGGCADDDDDDHHHHHH	2.06
